- Tested on: U87.MGΔEGFR cells
- method.summary: Resazurin reduction assay, U87.MGΔEGFR
- Format: cell-based
- measurement.parameters: Homo sapiens, 72 h

# structure, IC50
measured = [
    ("O=C1c2cccc(O)c2C(=O)c2c(O)cc(CO)cc21", "33.8 µM"),
]
